Overview of reported koff across a group of binders:
- Target Of Assay: T1, Human CD122 His tagged (human, UniProt P14784 27-240)
- T1 construct: also called hCD122; monomeric antigen; not shown: His tag
- T1 sequence: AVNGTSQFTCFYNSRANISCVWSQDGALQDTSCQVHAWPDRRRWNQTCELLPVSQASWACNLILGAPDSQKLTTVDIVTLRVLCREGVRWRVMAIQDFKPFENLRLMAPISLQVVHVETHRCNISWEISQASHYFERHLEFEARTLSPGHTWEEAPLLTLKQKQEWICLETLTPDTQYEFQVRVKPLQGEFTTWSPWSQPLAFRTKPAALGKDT
- Assay Remarks: Biacore, Fab affinity and kinetics on hCD122
Endpoint Label: koff

>  <Binder>
FAB14 (Fab, V domains shown, 06F11-V optimization variant; also called Fab version of MAB14) VH: EVQLLESGGGLVQPGGSLRLSCAASGFSVTSYGVHWIRQAPGKGLEWLGVIWSGGSTDYNAAFISRLTISKDNSKNTVYFQMNSLRAEDTAVYYCARAGDANYDGFAYWGQGTLVTVSS VL: DIQMTQSPSSLSASVGDRVTITCQASQSVSFLYWYQQRPGKAPRLLIYDTSNLASGVPSRFSGSGSGTSYTFTISSLQPEDIATYYCQQWSTYPLTFGQGTKVEIK

>  <Endpoint Label>
koff

>  <Observed Result>
0.0037 s⁻¹

$$$$
>  <Binder>
FAB17 (Fab, V domains shown, 06F11-V optimization variant; also called Fab version of MAB17) VH: EVQLLESGGGLVQPGGSLRLSCAASGFSVTSYGVHWIRQAPGKGLEWLGVIWSGGSTDYNAAFISRLTISKDNSKNTVYFQMNSLRAEDTAVYYCARAGDYNYDGFAYWGQGTLVTVSS VL: DIQMTQSPSSLSASVGDRVTITCQASQSVSFLYWYQQRPGKAPRLLIYDTSNLASGVPSRFSGSGSGTSYTFTISSLQPEDIATYYCQQWSTYPLTFGQGTKVEIK

>  <Endpoint Label>
koff

>  <Observed Result>
0.0046 s⁻¹

$$$$
>  <Binder>
FAB15 (Fab, V domains shown, 06F11-V optimization variant; also called Fab version of MAB15) VH: EVQLLESGGGLVQPGGSLRLSCAASGFSVTSYGVHWIRQAPGKGLEWLGVIWSGGSTDYNAAFISRLTISKDNSKNTVYFQMNSLRAEDTAVYYCARAGDANYDGFAYWGQGTLVTVSS VL: DIQMTQSPSSLSASVGDRVTITCQASSSVSFMYWYQQRPGKAPRLLIYDTSNLASGVPSRFSGSGSGTSYTFTISSLQPEDIATYYCQQWSTYPLTFGQGTKVEIK

>  <Endpoint Label>
koff

>  <Observed Result>
0.0034 s⁻¹

$$$$
